- target desc: Mesothelin (SwissProt reference Q13421-3) (Homo sapiens, UniProt Q13421 37-622)
- experiment description: cell-based or functional assay
metric name: IC50 (nM), HT29 meso+ cells, MTT proliferation assay
Give a bare numeral; the unit nM is implied.

Please review the following examples before continuing.
binder="Example 67, conjugate of anti-mesothelin antibody MF-Ta (antibody, human IgG1, lambda, V domains shown, toxophore-linker on Cys sulfur, sites not given) VH: QVELVQSGAEVKKPGESLKISCKGSGYSFTSYWIGWVRQAPGKGLEWMGIIDPGDSRTRYSPSFQGQVTISADKSISTAYLQWSSLKASDTAMYYCARGQLYGGTYMDGWGQGTLVTVSS VL: DIALTQPASVSGSPGQSITISCTGTSSDIGGYNSVSWYQQHPGKAPKLMIYGVNNRPSGVSNRFSGSKSGNTASLTISGLQAEDEADYYCSSYDIESATPVFGGGTKLTVLG" unit_spec=nM reported_measurement=0.015
binder="Example 72, conjugate of anti-mesothelin antibody MF-Ta (antibody, human IgG1, lambda, V domains shown, toxophore-linker on Cys sulfur, sites not given) VH: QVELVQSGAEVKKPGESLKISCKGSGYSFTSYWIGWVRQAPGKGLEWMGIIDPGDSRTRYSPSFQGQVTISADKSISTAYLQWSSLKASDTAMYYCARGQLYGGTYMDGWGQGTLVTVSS VL: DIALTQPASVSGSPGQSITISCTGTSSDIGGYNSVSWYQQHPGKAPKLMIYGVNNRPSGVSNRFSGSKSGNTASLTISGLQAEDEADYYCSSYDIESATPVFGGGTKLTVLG" unit_spec=nM reported_measurement=0.05
binder="Example 147, conjugate of anti-mesothelin antibody MF-Ta (antibody, human IgG1, lambda, V domains shown, toxophore-linker on Lys NH, sites not given) VH: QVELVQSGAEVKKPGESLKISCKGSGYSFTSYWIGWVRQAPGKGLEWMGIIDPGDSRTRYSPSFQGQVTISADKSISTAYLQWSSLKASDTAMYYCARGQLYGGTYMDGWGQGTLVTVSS VL: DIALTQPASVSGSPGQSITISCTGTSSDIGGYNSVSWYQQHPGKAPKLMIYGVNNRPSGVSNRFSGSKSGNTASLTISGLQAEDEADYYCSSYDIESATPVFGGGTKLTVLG" unit_spec=nM reported_measurement=5.6
binder="Example 129, conjugate of anti-mesothelin antibody MF-Ta (antibody, human IgG1, lambda, V domains shown, toxophore-linker on Cys sulfur, sites not given) VH: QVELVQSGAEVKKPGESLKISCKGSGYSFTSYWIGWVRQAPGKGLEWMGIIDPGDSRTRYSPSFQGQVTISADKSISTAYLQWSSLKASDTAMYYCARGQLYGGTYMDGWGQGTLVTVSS VL: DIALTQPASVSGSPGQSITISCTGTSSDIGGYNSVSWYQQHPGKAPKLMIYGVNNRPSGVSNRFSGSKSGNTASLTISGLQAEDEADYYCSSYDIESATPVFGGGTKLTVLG" unit_spec=nM reported_measurement=5.3

Next up:
Problem: Recorded IC50 (nM), HT29 meso+ cells, MTT proliferation assay of Example 63, conjugate of anti-mesothelin antibody MF-Ta (antibody, human IgG1, lambda, V domains shown, toxophore-linker on Cys sulfur, sites not given) VH: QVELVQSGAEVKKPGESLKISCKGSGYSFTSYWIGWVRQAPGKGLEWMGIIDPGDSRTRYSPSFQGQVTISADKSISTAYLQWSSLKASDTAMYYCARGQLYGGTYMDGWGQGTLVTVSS VL: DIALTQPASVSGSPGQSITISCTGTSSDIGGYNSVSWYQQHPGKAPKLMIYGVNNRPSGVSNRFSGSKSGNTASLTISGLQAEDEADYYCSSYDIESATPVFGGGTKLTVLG , please.
Solution: 0.03

Data provenance is patent US20150246136A1.
